Tested on: Streptococcus pneumoniae
Test: Determination of MIC values (BHI broth, 96 well microtiter plate)
Format: cell-based
Conditions: Streptococcus pneumoniae; S. pneu; BHI broth, overnight 37° C.; read-out: MIC S. pneu
So I've got a bunch of molecules here, and I need their MIC values.

Record for NCc1ccc(CNC(=O)c2cc(-c3c[nH]c4c(Cl)cccc34)nc3ccccc23)cc1 [Example 260] under target or system Streptococcus pneumoniae: MIC reported as < 25 mg/L

Measured MIC for this entry NCc1ccc(CNC(=O)c2cc(-c3c[nH]c4ccc(Cl)cc34)nc3ccc(Br)cc23)cc1 [Example 229] on Streptococcus pneumoniae: < 7 mg/L

MIC on Streptococcus pneumoniae for NCc1ccc(CNC(=O)c2cc(-c3c[nH]c4ccc(Br)cc34)nc3ccc(/C=C/c4ccccc4)cc23)cc1 [Example 228] is > 25 mg/L

The recorded MIC with Streptococcus pneumoniae for NCc1ccc(CNC(=O)c2cc(-c3c[nH]c4ccc(Br)cc34)nc3ccccc23)cc1 [Example 283] was < 7 mg/L

Short answer on Streptococcus pneumoniae for NCc1ccc(CNC(=O)c2cc(-c3c[nH]c4ccc(Br)cc34)nc3ccc(C#CCN4CCNCC4)cc23)cc1 [Example 208] , MIC: < 25 mg/L

Form field, MIC with Streptococcus pneumoniae, item NCC1CCC(CNC(=O)c2cc(-c3c[nH]c4ccc(Br)cc34)nc3cc(Cl)cc(Cl)c23)CC1 (stereo not shown) [Example 247] : < 7 mg/L

Bench note, Streptococcus pneumoniae: entry NCc1ccc(CNC(=O)c2cc(-c3c[nH]c4ccc(Br)cc34)nc3c(F)cccc23)cc1 [Example 256] , its MIC = < 7 mg/L

// returns MIC for O=C(O)c1cc(-c2c[nH]c3ccc(Br)cc23)nc2cc(F)cc(Cl)c12 [Example 297] with Streptococcus pneumoniae; value = < 25 mg/L

The reported Streptococcus pneumoniae MIC of Cn1cc(-c2cc(C(=O)NCCN)c3ccc(F)cc3n2)c2cc(Br)ccc21 [Example 325] is < 7 mg/L

Entry NCCNC(=O)c1cc(-c2c[nH]c3ccc(Br)cc23)nc2c(Cl)cccc12 [Example 318] : MIC on Streptococcus pneumoniae = < 7 mg/L

Log: Streptococcus pneumoniae, molecule CN1CCN(CC#Cc2ccc3nc(-c4cn(C)c5ccc(Br)cc45)cc(C(=O)NCc4ccc(CN)cc4)c3c2)CC1 [Example 395] , MIC = < 25 mg/L

Value (MIC, Streptococcus pneumoniae) for record COc1ccc2[nH]c(C)c(-c3ccc4c([N+](=O)[O-])cccc4n3)c2c1 [Example 386] = > 25 mg/L

Lab note: molecule Cn1cc(-c2cc(C(=O)NCc3ccc(CN)cc3)c3cc(C#CCN4CC=CC4)ccc3n2)c2cc(Br)ccc21 [Example 396] tested on Streptococcus pneumoniae; recorded MIC was > 25 mg/L

Lab note: molecule NCc1ccc(CNC(=O)c2cc(-c3c[nH]c4ccc(Br)cc34)nc3cc(C#CCN4CC=CCC4)ccc23)cc1 [Example 304] tested on Streptococcus pneumoniae; recorded MIC was < 7 mg/L

Summary line: Cn1cc(-c2cc(C(=O)NCC3CCCC(CN)C3)c3cc(I)ccc3n2)c2cc(Br)ccc21 (stereo not shown) [Example 358] , Streptococcus pneumoniae, reported MIC = < 7 mg/L

Noted MIC for NCC1CCCC(CNC(=O)c2cc(-c3c[nH]c4ccc(Br)cc34)nc3cc(Cl)cc(Cl)c23)C1 (stereo not shown) [Example 248] , tested on Streptococcus pneumoniae: < 7 mg/L
